I'd appreciate it if you could supply Activity values for the items below.
Test system: Salmonella typhimurium
testProtocol: Mutagenicity in Salmonella typhimurium TA100 assessed as number of revertants at 20 ug/plate by Ames test (reference value: 77 +/-4)
Type: toxicity, organism-based
particulars: salmonella enterica subsp. enterica serovar typhimurium
Just the number.

Known value: Salmonella typhimurium Activity of the compound CC(C)C(CO)NC(=O)/C=C/c1ccccc1 (racemic) equals 75

Here O=C(/C=C/c1ccccc1)N[C@H]1CCCC[C@@H]1O (racemic) was tested on Salmonella typhimurium, and its Activity came to 79

// returns Activity for CCC(O)CNC(=O)/C=C/c1ccccc1 (racemic) with Salmonella typhimurium; value = 64

Simply: CCC(CO)NC(=O)/C=C/c1ccccc1 (racemic) , Salmonella typhimurium, Activity = 62

Summary: CC(CO)NC(=O)/C=C/c1ccccc1 (racemic) , Salmonella typhimurium, Activity = 62

Fill in: Salmonella typhimurium Activity for CC(O)CNC(=O)/C=C/c1ccccc1 (racemic) = 70

Param item: O=C(/C=C/c1ccccc1)N1CCC(O)CC1 ; param system: Salmonella typhimurium; output Activity: 68

----------
System: Salmonella typhimurium
testProtocol: Mutagenicity in Salmonella typhimurium TA98 assessed as mutagenic index at 4 ug/plate by Ames test
Type: toxicity, organism-based
particulars: salmonella enterica subsp. enterica serovar typhimurium
propertyMeasured: Activity_index

Recorded Activity_index (compound O=C(/C=C/c1ccccc1)N1CCC(O)CC1 ): 1

Per the records, this compound ( O=C(/C=C/c1ccccc1)N[C@H]1CCCC[C@@H]1O (racemic) ) has Activity_index equal to 1

The reported value for CC(CO)NC(=O)/C=C/c1ccccc1 (racemic) in terms of Activity_index is 0.9

Recorded result, CC(C)C(CO)NC(=O)/C=C/c1ccccc1 (racemic) , Activity_index: 0.9

// CCC(CO)NC(=O)/C=C/c1ccccc1 (racemic) : Activity_index value = 0.9

Sample CCC(O)CNC(=O)/C=C/c1ccccc1 (racemic) ; Activity_index observed: 0.9

response.value for CC(O)CNC(=O)/C=C/c1ccccc1 (racemic) (field: Activity_index) = 1.1

----------
System: Salmonella typhimurium
testProtocol: Mutagenicity in Salmonella typhimurium TA1535 assessed as number of revertants at 100 ug/plate by Ames test (reference value: 10 +/- 3)
Assay type: toxicity, organism-based
particulars: salmonella enterica subsp. enterica serovar typhimurium
Label YES for high-side Activity (at or above 9) and NO for low-side Activity (below it).

Q. Please check the record CCC(CO)NC(=O)/C=C/c1ccccc1 (racemic) and state if its Activity is at or above 9.
A. YES

Q. Given the entry O=C(/C=C/c1ccccc1)N[C@H]1CCCC[C@@H]1O (racemic) , answer whether its Activity meets or surpasses 9.
A. NO

Q. Could you tell me if the measured Activity of CC(O)CNC(=O)/C=C/c1ccccc1 (racemic) reaches 9 or more?
A. YES

Q. Threshold query (Activity >= 9) on CC(CO)NC(=O)/C=C/c1ccccc1 (racemic)
A. NO

Q. Does Activity meet or surpass 9 for CCC(O)CNC(=O)/C=C/c1ccccc1 (racemic) ?
A. NO

Q. Check this compound for Activity at or above 9: CC(C)C(CO)NC(=O)/C=C/c1ccccc1 (racemic)
A. NO

----------
Can you tell me Activity for the items I'm about to list?
Test system: Salmonella typhimurium
testProtocol: Mutagenicity in Salmonella typhimurium TA1535 assessed as number of revertants at 500 ug/plate by Ames test (reference value: 10 +/- 3)
Format: toxicity, organism-based
particulars: salmonella enterica subsp. enterica serovar typhimurium

Sample CC(O)CNC(=O)/C=C/c1ccccc1 (racemic) ; Activity observed: 14

Just so you know, measured Activity for CC(CO)NC(=O)/C=C/c1ccccc1 (racemic) came out at 8

The molecule listed as CCC(CO)NC(=O)/C=C/c1ccccc1 (racemic) shows Activity equal to 13

For CC(C)C(CO)NC(=O)/C=C/c1ccccc1 (racemic) the molecule record lists Activity as 7

Form field Activity, entry O=C(/C=C/c1ccccc1)N1CCC(O)CC1 : 8

Looking up CCC(O)CNC(=O)/C=C/c1ccccc1 (racemic) , I found its Activity recorded as 7

# Activity of O=C(/C=C/c1ccccc1)N[C@H]1CCCC[C@@H]1O (racemic) = 7

----------
System: Salmonella typhimurium
testProtocol: Mutagenicity in Salmonella typhimurium TA98 assessed as mutagenic index at 20 ug/plate by Ames test
Assay type: toxicity, organism-based
particulars: salmonella enterica subsp. enterica serovar typhimurium
propertyMeasured: Activity_index

# compound CC(C)C(CO)NC(=O)/C=C/c1ccccc1 (racemic) ; its Activity_index = 0.8

Noted for O=C(/C=C/c1ccccc1)N1CCC(O)CC1 : its Activity_index reads 0.8

// Activity_index lookup, compound = CCC(CO)NC(=O)/C=C/c1ccccc1 (racemic) , result: 1

Note to self: Activity_index recorded for CC(CO)NC(=O)/C=C/c1ccccc1 (racemic) was 0.9

Form field Activity_index, entry O=C(/C=C/c1ccccc1)N[C@H]1CCCC[C@@H]1O (racemic) : 0.9

Lab note: measured Activity_index of CC(O)CNC(=O)/C=C/c1ccccc1 (racemic) was 1

Per the record, CCC(O)CNC(=O)/C=C/c1ccccc1 (racemic) has Activity_index of 0.9

----------
testProtocol: Lipophilicity of the compound using 75% methanol in water at 1 mg/ml by RT-TLC analysis
Format: physicochemical
particulars: buffer
Rm strictly under -0.2 means yes (1); at -0.2 or over means no (0).

Q. Record CCC(CO)NC(=O)/C=C/c1ccccc1 (racemic) : is its Rm strictly below -0.2?
A. no (0)

Q. I wonder whether CC(=O)OCC(C)NC(=O)/C=C/c1ccccc1 (racemic) has Rm below -0.2. Can you tell?
A. no (0)

Q. Answer whether the molecule COC(=O)C(NC(=O)/C=C/c1ccccc1)C(C)C (racemic) has Rm strictly less than -0.2
A. no (0)

Q. Decide: Rm of CC(=O)CNC(=O)/C=C/c1ccccc1 strictly below -0.2?
A. yes (1)

Q. Threshold test, Rm < -0.2: O=C(/C=C/c1ccccc1)N1CCC(O)CC1
A. no (0)

Q. Field: below-cutoff. Rule: recorded Rm strictly less than -0.2. Subject: CCC(O)CNC(=O)/C=C/c1ccccc1 (racemic)
A. no (0)

Q. Bench note: check whether CC(O)CNC(=O)/C=C/c1ccccc1 (racemic) shows Rm below -0.2
A. yes (1)

Q. Does the reported Rm of the following molecule sit strictly below -0.2? O=C(/C=C/c1ccccc1)NCCCCCO
A. no (0)

Q. API: query returns whether the molecule falls strictly under -0.2 in Rm. Query: CC(CO)NC(=O)/C=C/c1ccccc1 (racemic)
A. yes (1)

Q. Consider the molecule CCC(COC(C)=O)NC(=O)/C=C/c1ccccc1 (stereo not given) . Is its Rm strictly less than -0.2?
A. no (0)

Q. is_below(Rm, -0.2) for CC(NC(=O)/C=C/c1ccccc1)C(=O)NCN1CCCCC1 (racemic) ?
A. no (0)

Q. Would you kindly verify if Rm of CC(C)(CO)NC(=O)/C=C/c1ccccc1 is strictly less than -0.2?
A. no (0)

Q. Strictly below -0.2 in Rm? CC(=O)OC(C)CNC(=O)/C=C/c1ccccc1 (racemic)
A. no (0)

Q. Problem: For the molecule O=C(/C=C/c1ccccc1)N[C@H]1CCCC[C@@H]1O (racemic) , is Rm under -0.2?
A. no (0)

Q. Here's an entry: CC(C)C(CO)NC(=O)/C=C/c1ccccc1 (racemic) . Is its Rm below -0.2?
A. no (0)

----------
Tested on: Salmonella typhimurium
testProtocol: Mutagenicity in Salmonella typhimurium TA1535 assessed as number of revertants at 20 ug/plate by Ames test (reference value: 10 +/- 3)
Format: toxicity, organism-based
particulars: salmonella enterica subsp. enterica serovar typhimurium
propertyMeasured: Activity
Quick one: just the number, no unit, thanks!

Activity reading for O=C(/C=C/c1ccccc1)N[C@H]1CCCC[C@@H]1O (racemic) : 14

Lab note: CCC(O)CNC(=O)/C=C/c1ccccc1 (racemic) gave Activity of 14

Reported Activity for CC(C)C(CO)NC(=O)/C=C/c1ccccc1 (racemic) was 6

For this compound ( CC(CO)NC(=O)/C=C/c1ccccc1 (racemic) ), measured Activity is 6

Form field Activity, entry CCC(CO)NC(=O)/C=C/c1ccccc1 (racemic) : 5

For record CC(O)CNC(=O)/C=C/c1ccccc1 (racemic) the listed Activity is 13

Recorded result, O=C(/C=C/c1ccccc1)N1CCC(O)CC1 , Activity: 6

----------
testProtocol: Lipophilicity of the compound using 85% methanol in water at 1 mg/ml by RT-TLC analysis
Type: physicochemical
particulars: buffer
Task for the reader: assign each of the following compounds its reported Rm.
// return just the number, without any unit appended

The compound CC(O)CNC(=O)/C=C/c1ccccc1 (racemic) showed Rm equal to -0.33

Looking up CCC(O)CNC(=O)/C=C/c1ccccc1 (racemic) , I found its Rm recorded as -0.25

Item: CC(=O)OC(C)CNC(=O)/C=C/c1ccccc1 (racemic) | Rm: -0.19
